Tested on: HepaRG cells
Test: High-throughput transcriptomics (HTTr, TempO-Seq), HepaRG, 24 h
Format: cell-based, human
Conditions: HepaRG; HTTr BIFROST PoD
Counter-ions that a name gives are not always drawn. Peptide text beside a SMILES is read from it.
experimental.endpoint: pod_httr_bifrost PoD

{"compound": "NNc1nncc2ccccc12 [Hydralazine_hydrochloride]", "observed": "1.593 µM"}
{"compound": "NS(=O)(=O)c1cc(C(=O)O)c(NCc2ccco2)cc1Cl [Furosemide]", "observed": "0.2929 µM"}
{"compound": "COc1ccc(CCN(C)CCCC(C#N)(c2ccc(OC)c(OC)c2)C(C)C)cc1OC (centres unmarked) [Verapamil_hydrochloride]", "observed": "1.688 µM"}
{"compound": "O=P1(N(CCCl)CCCl)NCCCO1 (centres unmarked) [Cyclophosphamide]", "observed": "7.071 µM"}
{"compound": "CC(C)Cc1ccc(C(C)C(=O)O)cc1 (centres unmarked)", "observed": "0.1626 µM"}
{"compound": "Nc1ccc(NCCO)c([N+](=O)[O-])c1", "observed": "0.1851 µM"}
{"compound": "COc1ccc(O)c(C(C)(C)C)c1 [Butylated_Hydroxyanisole]", "observed": "6.323 µM"}
{"compound": "CCOP(=S)(OCC)Oc1nc(Cl)c(Cl)cc1Cl", "observed": "0.07063 µM"}
{"compound": "CN(C)[C@@H]1C(O)=C(C(N)=O)C(=O)[C@@]2(O)C(O)=C3C(=O)c4c(O)cccc4[C@@](C)(O)[C@H]3[C@H](O)[C@@H]12 [Oxytetracycline_hydrochloride]", "observed": "4.2 µM"}
{"compound": "CCCCOC(=O)c1ccc(O)cc1 [Butyl_4-hydroxybenzoate]", "observed": "66.4882 µM"}
{"compound": "Nc1cc([N+](=O)[O-])cc(Cl)c1O", "observed": "1.518 µM"}
{"compound": "COc1ccc(Cl)cc1C(=O)NCCc1ccc(S(=O)(=O)NC(=O)NC2CCCCC2)cc1 [Glybenclamide]", "observed": "0.07298 µM"}
{"compound": "O=CCCCC=O", "observed": "136.152 µM"}
{"compound": "N#CC(CCc1ccc(Cl)cc1)(Cn1cncn1)c1ccccc1 (centres unmarked)", "observed": "0.6247 µM"}
{"compound": "COC(=O)[C@H](Cc1ccccc1)NC(=O)[C@@H](N)CC(=O)O [Aspartame] (H-Asp-Phe-OMe)", "observed": "853.753 µM"}
{"compound": "CCCCCCC(O)CO (centres unmarked)", "observed": "103.989 µM"}
{"compound": "O=C1CN(N=Cc2ccc([N+](=O)[O-])o2)C(=O)N1", "observed": "0.1863 µM"}
